Target: Cholecystokinin receptor type A (Rattus norvegicus)
Sequence (P30551 whole entry): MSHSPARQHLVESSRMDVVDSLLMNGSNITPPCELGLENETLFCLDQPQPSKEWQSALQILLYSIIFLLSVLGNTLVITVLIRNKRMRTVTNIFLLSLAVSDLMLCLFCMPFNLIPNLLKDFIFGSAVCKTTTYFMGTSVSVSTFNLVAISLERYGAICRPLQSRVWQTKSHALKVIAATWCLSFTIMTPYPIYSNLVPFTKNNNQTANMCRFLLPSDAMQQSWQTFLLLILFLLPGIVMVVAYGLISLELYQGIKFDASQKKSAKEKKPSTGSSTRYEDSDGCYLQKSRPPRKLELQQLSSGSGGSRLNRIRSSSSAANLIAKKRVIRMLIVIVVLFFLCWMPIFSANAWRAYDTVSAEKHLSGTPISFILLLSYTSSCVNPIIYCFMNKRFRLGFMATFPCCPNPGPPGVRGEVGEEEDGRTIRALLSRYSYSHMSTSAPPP
Experiment: The compound was tested for binding activity against Cholecystokinin type A receptor from rat pancreatic tissue using [125]BH CCK-A as radioligand
pIC50: −log10 of the molar value.

| RECORD_SMILES | pIC50 |
| --- | --- |
| CN1C(=O)[C@@H](NC(=O)Nc2ccc(-c3nnn[nH]3)cc2)N=C(c2ccccc2)c2ccccc21 | 6.24 |
| CC(C)CN1C(=O)[C@@H](NC(=O)Nc2ccc(-c3nn[nH]n3)cc2)N=C(c2ccccc2)c2ccccc21 | 5.84 |

###

Assay: Equilibrium solubility determined after stirring the compound in buffered solution for more than 5 hours at pH 7.4
Assay type: ADME
Reported solubility thermodynamic at 5 h by item:
MEASURE_NAME: solubility thermodynamic at 5 h (µg/mL)

| MOLECULE | MEASURE_NAME | CENSOR_SYMBOL | ASSAY_VALUE |
| --- | --- | --- | --- |
| CN1C(=O)C(NC(=O)Nc2ccc(C(=O)O)cc2)N=C(c2ccccc2)c2ccccc21 (single isomer, unassigned) | solubility thermodynamic at 5 h | = | 4700 |
| CN1C(=O)[C@@H](NC(=O)Nc2ccc(-c3nnn[nH]3)cc2)N=C(c2ccccc2)c2ccccc21 | solubility thermodynamic at 5 h | = | 3740 |
| CN1C(=O)[C@@H](NC(=O)Nc2ccc(-c3noc(O)n3)cc2)N=C(c2ccccc2)c2ccccc21 | solubility thermodynamic at 5 h | = | 410 |
| Cc1ccc(NC(=O)N[C@H]2N=C(c3ccccc3)c3ccccc3N(C)C2=O)cc1 | solubility thermodynamic at 5 h | > | 2 |

###

Experiment: Equilibrium solubility determined after stirring the compound in buffered solution for more than 5 hours at pH 8.00
Type: ADME

| RECORD_SMILES | solubility thermodynamic at 5 h |
| --- | --- |
| CC(C)CN1C(=O)[C@@H](NC(=O)Nc2ccc(-c3nn[nH]n3)cc2)N=C(c2ccccc2)c2ccccc21 | > 11 mg/mL |

###

Test: Equilibrium solubility determined after stirring the compound in buffered solution for more than 5 hours at pH 7
Type: ADME

| RECORD_SMILES | UNIT_TAG | solubility thermodynamic at 5 h |
| --- | --- | --- |
| CC(C)CN1C(=O)[C@@H](NC(=O)Nc2ccc(-c3nn[nH]n3)cc2)N=C(c2ccccc2)c2ccccc21 | µg/mL | 1400 |
